Assay: Concentration of marker components (ginsenosides) in P. quinquefolium samples after gamma irradiation (HPLC)
Format: physicochemical
Conditions: 20 kGy gamma irradiation, mean ± SD, three repeats
Value Kind: concentration of marker components of P. quinquefolium (ginsenoside) (mg/g)
Only the number, expressed in mg/g, is required.

Compound	Recorded Result
CC(C)=CCC[C@](C)(O[C@@H]1O[C@H](CO)[C@@H](O)[C@H](O)[C@H]1O)[C@H]1CC[C@]2(C)[C@@H]1[C@H](O)C[C@@H]1[C@@]3(C)CC[C@H](O)C(C)(C)[C@@H]3[C@@H](O[C@@H]3O[C@H](CO)[C@@H](O)[C@H](O)[C@H]3O)C[C@]12C [Rg1, ginsenoside Rg1]	1.43

Now take the following compound into account.
Problem: What value of concentration of marker components of P. quinquefolium (ginsenoside) has been recorded for this entry: CC(C)=CCC[C@](C)(O[C@@H]1O[C@H](CO[C@@H]2O[C@H](CO)[C@@H](O)[C@H](O)[C@H]2O)[C@@H](O)[C@H](O)[C@H]1O)[C@H]1CC[C@]2(C)[C@@H]1[C@H](O)C[C@@H]1[C@@]3(C)CC[C@H](O[C@@H]4O[C@H](CO)[C@@H](O)[C@H](O)[C@H]4O[C@@H]4O[C@H](CO)[C@@H](O)[C@H](O)[C@H]4O)C(C)(C)[C@@H]3CC[C@]12C [Rb1, ginsenoside Rb1]
Solution: 29.39
